- Test system: Cytomegalovirus
- Protocol Notes: Minimum Inhibitory Concentration (MIC) tested for activity against Cytomegalovirus (CMV) using AD169 strain
- Format: functional
- Assay Conditions: Human betaherpesvirus 5
Metric: MIC

Molecule | Metric | Experimental Value
CCSCc1cnc2cc(C)ccn12 | MIC | > 10 µg/mL
Cc1cccc2ncc(CSCC(O)CO)n12 (stereo unspecified) | MIC | > 10 µg/mL
Cc1ccn2c(CSCC(O)CO)cnc2c1 (stereo unspecified) | MIC | > 50 µg/mL
CC(O)CSCc1cnc2ncccn12 (stereo unspecified) | MIC | > 40 µg/mL
OCCCSCc1cnc2c(Cl)cc(C(F)(F)F)cn12 | MIC | > 40 µg/mL
Cc1ccn2c(CSCC(C)O)cnc2c1 (stereo unspecified) | MIC | > 50 µg/mL

Source listed as ChEMBL document CHEMBL1129240.
